- experimental_target: T1, Lsb4, P32793
- T1 sequence (P32793 402-468, looked up): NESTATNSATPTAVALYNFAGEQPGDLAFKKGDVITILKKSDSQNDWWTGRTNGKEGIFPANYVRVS
- assay_explanation: SPOT array
- test_parameters: median of control spots 397
Each entry below carries its recorded SPOT intensity.
readout_label: SPOT intensity

>>> print(df.to_string())
            binder   readout_label  observed
0  NRPAIRIPSLKKPAL  SPOT intensity         6
1  GPPPPLPPPLFPSSS  SPOT intensity        10
2  GLRRARYKFPGQQKI  SPOT intensity         2
3  FIRKRAPTPPAPSRS  SPOT intensity        26
